These data points were gathered from patent US8802694B2.

# Study target: Human α4β2 (Homo sapiens, UniProt P17787+P43681)
# Construct: host or cells: SH-EP1
# Test method notes: Competition binding to human α4β2 receptors in membranes of SH-EP1/human α4β2 cells ([3H]-nicotine)
# Condition context: Human α4β2 Ki, membrane competition binding
Can you tell me pKi for the items I'm about to list?
Numbers only, as −log10 of the molar value.

Some entries whose results are on file:
>>> df
                                   compound                              study_target  reported_measurement
0                Cc1nocc1C(=O)N1CC2CC(C1)N2  Human α4β2 (Homo sapiens, UniProt P17787+P43681)                  7.28
1  O=C(C1C2CCCCC21)N1CC2CC(C1)N2 (stereo not shown)  Human α4β2 (Homo sapiens, UniProt P17787+P43681)                  7.11
2  CC1CC1C(=O)N1C2CNCC1C2 (stereo not shown)  Human α4β2 (Homo sapiens, UniProt P17787+P43681)                  7.34
3  C[C@@H]1C(C(=O)N2CC3CC(C2)N3)[C@@H]1C (stereo partly shown)  Human α4β2 (Homo sapiens, UniProt P17787+P43681)                  7.36
4  C[C@H]1C[C@@H]1C(=O)N1CC2CC(C1)N2 [drawing 170]  Human α4β2 (Homo sapiens, UniProt P17787+P43681)                  7.89
5           O=C([C@H]1C[C@@H]1F)N1C2CNCC1C2  Human α4β2 (Homo sapiens, UniProt P17787+P43681)                  8.66
6           C[C@@H]1C[C@H]1C(=O)N1C2CNCC1C2  Human α4β2 (Homo sapiens, UniProt P17787+P43681)                  8.04
7                   O=C(CC1CCC1)N1C2CNCC1C2  Human α4β2 (Homo sapiens, UniProt P17787+P43681)                  7.28

Provide reported pKi for each item, in the same order as listed.
1. CC1(C)CC(C(=O)N2CC3CC(C2)N3)C1
2. O=C(CSc1ccc(O)cc1)N1CC2CC(C1)N2

**Result**
1. 7.16
2. 7.96
